- target.under.test: Serine/threonine-protein phosphatase (Candida dubliniensis (strain CD36 / CBS 7987 / NCPF 3949 / NRRLY-17841) (Yeast))
- Sequence (B9W6M3 whole entry): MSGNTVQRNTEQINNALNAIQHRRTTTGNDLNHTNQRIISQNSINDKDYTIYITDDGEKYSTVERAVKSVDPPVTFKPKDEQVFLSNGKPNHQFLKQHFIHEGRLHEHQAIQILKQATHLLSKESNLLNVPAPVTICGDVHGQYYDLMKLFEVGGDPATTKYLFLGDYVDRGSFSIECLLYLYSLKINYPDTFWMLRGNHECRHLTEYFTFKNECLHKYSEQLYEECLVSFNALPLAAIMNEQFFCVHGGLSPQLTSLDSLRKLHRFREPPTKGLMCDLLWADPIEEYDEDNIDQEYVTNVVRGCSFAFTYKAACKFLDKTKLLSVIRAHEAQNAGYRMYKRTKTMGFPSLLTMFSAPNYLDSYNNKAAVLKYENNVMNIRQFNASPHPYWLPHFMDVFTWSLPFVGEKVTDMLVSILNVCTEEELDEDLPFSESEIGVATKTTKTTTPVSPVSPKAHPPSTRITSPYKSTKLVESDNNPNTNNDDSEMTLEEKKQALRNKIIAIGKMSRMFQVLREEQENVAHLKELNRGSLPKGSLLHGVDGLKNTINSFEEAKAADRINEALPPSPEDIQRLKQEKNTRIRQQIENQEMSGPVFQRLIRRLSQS
- experiment: calcineurin pathway inhibitors in yeast reporter, dose response, S. cerevisiae, CDRE-lacZ, luminescence, secondary (AID 2388);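 further: yeast reporter cells carrying a calcineurin-responsive lacZ construct stimulated with calcium chloride; luminescent beta-galactosidase reporter signal in whole cells rather than isolated phosphatase activity; potency for inhibition where a drop in reporter signal means calcineurin blockade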
- Assay type: functional, cell-based
Active and inactive are the calls of the source.
value.kind: EC50

INSERT INTO assay_data (smiles_str, value_kind, result) VALUES
  ('Cn1cc(C(c2ccccn2)c2cn(C)c3ccccc23)c2ccccc21', 'EC50', '> 180 µM (inactive)'),
  ('COc1ccc(CCNc2ncnc3sc(C)cc23)cc1OC', 'EC50', '> 180 µM (inactive)'),
  ('Cc1ccc(/C=C/C(=O)c2ccccc(=O)c2O)cc1C', 'EC50', '5.55 µM (active)');

Incoming: What measured EC50 goes with Cc1cc(=O)oc2cc(Oc3ccc([N+](=O)[O-])cc3[N+](=O)[O-])ccc12 ?
Outgoing: > 180 µM (inactive)

* * *

Assign IC50 to each entry below.
- target.under.test: Nonstructural protein 1 (Influenza A virus, UniProt Q194T2)
- Sequence (Q194T2 whole entry): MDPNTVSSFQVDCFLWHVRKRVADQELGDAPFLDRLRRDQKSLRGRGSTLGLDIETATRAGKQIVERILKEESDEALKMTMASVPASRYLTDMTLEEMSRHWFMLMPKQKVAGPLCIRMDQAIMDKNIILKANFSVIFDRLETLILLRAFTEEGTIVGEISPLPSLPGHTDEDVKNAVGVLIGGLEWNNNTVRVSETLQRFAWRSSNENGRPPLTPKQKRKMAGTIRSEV
- Type: functional, Influenza A virus (A/California/07/2009(H1N1))
The source made the active and inactive calls.

# count of solved cases: 4
INSERT INTO results (smiles_str, target_under_test, result) VALUES
  ('O=C(O)CCCC[C@@H]1SC[C@@H]2NC(=O)N[C@@H]21', 'Nonstructural protein 1 (Influenza A virus, UniProt Q194T2)', '< 0.2 µM (active)'),
  ('CC1=C/C(=C(/c2cc(C)c(O)c(Br)c2)c2ccccc2S(=O)(=O)O)C=C(Br)C1=O', 'Nonstructural protein 1 (Influenza A virus, UniProt Q194T2)', '16.3 µM (active)'),
  ('CCN1C(=O)/C(=C2\C=Cc3cc(C)ccc3N2CC)OC1=S', 'Nonstructural protein 1 (Influenza A virus, UniProt Q194T2)', '> 100 µM (active)'),
  ('Cc1cc(-c2ccccc2)nc(N/N=C/c2ccc([N+](=O)[O-])cc2)n1', 'Nonstructural protein 1 (Influenza A virus, UniProt Q194T2)', '> 100 µM (active)');

Turning to the following molecule.
Incoming: Form field - read-out: IC50; system: Nonstructural protein 1 (Influenza A virus, UniProt Q194T2); submitted item: Cc1cccc(Nc2nc(-c3ccccn3)cs2)n1
Outgoing: 29.6 µM (active)

* * *

- target.under.test: DNA repair protein RAD52 homolog (Homo sapiens)
- Sequence (P43351 whole entry): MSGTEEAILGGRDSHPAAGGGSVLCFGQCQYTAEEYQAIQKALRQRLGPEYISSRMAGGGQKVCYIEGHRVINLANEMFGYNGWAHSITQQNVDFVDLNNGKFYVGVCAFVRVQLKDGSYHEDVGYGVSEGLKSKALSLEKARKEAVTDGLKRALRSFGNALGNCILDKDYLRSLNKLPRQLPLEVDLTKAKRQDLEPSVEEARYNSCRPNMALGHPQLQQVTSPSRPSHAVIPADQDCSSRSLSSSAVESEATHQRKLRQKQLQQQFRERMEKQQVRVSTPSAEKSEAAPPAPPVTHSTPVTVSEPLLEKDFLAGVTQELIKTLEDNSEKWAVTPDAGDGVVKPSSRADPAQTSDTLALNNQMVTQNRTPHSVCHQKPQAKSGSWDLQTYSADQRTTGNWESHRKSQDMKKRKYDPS
- Type: functional, biochemical
Activity calls are given as the source filed them.
value.kind: AC50

# count of solved cases: 3
INSERT INTO measurements (compound, target_under_test, result) VALUES
  ('CCOC(=O)c1c(C)n(Cc2ccccc2)c2ccc(OCC(O)CNC(C)(C)C)cc12 (centres undefined)', 'DNA repair protein RAD52 homolog (Homo sapiens)', '22 µM (active)'),
  ('CCN(CC)CCN(C(=O)C1=COCCO1)c1nc2c(OC)ccc(OC)c2s1', 'DNA repair protein RAD52 homolog (Homo sapiens)', '8.89 µM (active)'),
  ('Cc1[nH]c2ccc(O)cc2c1CCN', 'DNA repair protein RAD52 homolog (Homo sapiens)', '4.06 µM (active)');

Turning to the following compound.
Incoming: Form field - read-out: AC50; system: DNA repair protein RAD52 homolog (Homo sapiens); submitted item: COc1ccc(-c2oc3ncnc(NCCCN(C)C)c3c2-c2ccc(OC)cc2)cc1
Outgoing: 3.48 µM (active)
